molecular target: UniProt P16885; test: inhibition of C8CF3-coumarin processing by purified enzyme; assay type: biochemical
Sequence (P16885 1-1195): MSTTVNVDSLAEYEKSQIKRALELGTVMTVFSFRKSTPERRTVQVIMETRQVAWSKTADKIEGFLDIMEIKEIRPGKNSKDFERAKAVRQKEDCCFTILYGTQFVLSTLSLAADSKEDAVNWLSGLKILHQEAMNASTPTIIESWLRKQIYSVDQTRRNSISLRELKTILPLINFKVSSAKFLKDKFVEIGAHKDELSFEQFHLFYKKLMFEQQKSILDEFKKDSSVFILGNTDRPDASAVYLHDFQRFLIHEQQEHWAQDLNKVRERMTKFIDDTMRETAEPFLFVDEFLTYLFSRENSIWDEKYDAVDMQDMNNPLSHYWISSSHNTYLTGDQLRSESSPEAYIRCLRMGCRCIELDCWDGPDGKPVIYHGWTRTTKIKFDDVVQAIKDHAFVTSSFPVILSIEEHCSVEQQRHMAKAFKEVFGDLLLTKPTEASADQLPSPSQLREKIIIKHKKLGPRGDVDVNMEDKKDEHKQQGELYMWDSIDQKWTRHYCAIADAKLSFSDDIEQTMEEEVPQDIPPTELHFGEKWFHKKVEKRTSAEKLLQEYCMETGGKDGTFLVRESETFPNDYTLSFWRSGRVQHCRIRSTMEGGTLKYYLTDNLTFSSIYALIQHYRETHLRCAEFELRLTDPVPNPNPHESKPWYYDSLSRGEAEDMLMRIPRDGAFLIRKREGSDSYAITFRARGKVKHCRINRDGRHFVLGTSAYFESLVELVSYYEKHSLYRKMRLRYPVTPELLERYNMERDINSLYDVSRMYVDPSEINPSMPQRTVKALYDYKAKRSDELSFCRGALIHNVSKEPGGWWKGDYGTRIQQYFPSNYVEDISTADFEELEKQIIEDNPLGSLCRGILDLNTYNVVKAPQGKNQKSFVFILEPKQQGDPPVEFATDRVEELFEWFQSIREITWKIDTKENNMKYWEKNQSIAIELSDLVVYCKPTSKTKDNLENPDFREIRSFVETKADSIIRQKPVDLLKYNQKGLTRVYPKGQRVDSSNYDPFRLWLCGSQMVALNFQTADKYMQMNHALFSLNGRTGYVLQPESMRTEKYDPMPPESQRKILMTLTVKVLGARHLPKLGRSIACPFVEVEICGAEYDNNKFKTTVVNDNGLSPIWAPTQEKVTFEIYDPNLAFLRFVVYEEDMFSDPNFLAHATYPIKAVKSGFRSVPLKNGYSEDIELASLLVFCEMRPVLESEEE
pIC50: −log10 of the molar value.

Molecule | pIC50
Nc1ncnc2c1ncn2[C@@H]1O[C@H](COP(=O)(O)OP(=O)(O)OP(=O)(O)O)[C@@H](O)[C@H]1O [adenosine triphosphate] | 4.57
